Parameter: pIC50. Scope: all listed entries.
Study system: T1, hBfl-1ΔTm(1–149) (human)
T1 chain: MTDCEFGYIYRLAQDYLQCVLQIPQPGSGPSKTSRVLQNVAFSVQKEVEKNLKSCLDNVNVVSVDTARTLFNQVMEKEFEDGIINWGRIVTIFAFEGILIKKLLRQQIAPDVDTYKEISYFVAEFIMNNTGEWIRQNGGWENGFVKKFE
Procedure details: DELFIA displacement assay
pIC50: −log10 of the molar value. Non-standard residues stand in square brackets, D forms with d. code λ = not defined here
Endpoint: pIC50

- Ac-[code h]ATQLRRFGDKLNFRQKLLN-NH2 [homo_hNOXA (Ac-h…-NH2)]: 7.08
- Ac-[code λ]ATQLRRFGDKLNFRQKLLN-NH2 (reading uncertain) [λ_hNOXA (Ac-λ…-NH2)]: 6.54
